// merged dataset of pKi values, system = Protein kinase C alpha type (Homo sapiens), multiple refs
pKi: −log10 of the molar value.

[Q] Reported pKi for NC1CCCN(c2ccc(C(F)(F)F)c(-c3n[nH]c4ncccc34)n2)C1 (centres unmarked) : what is it?
[A] < 5.90

[Q] For the compound CCC1(CC)CN(c2ccc(C(F)(F)F)c(-c3n[nH]c4ncccc34)n2)CCC1N (centres unmarked) , what pKi is on record?
[A] < 5.90

***
[Q] # pKi lookup, item "CC(C)C[C@H]1CN(c2cc(C(=O)c3cccnc3N)c(-c3ccco3)cn2)CCN1"
[A] < 5.55

[Q] I would be grateful if you could share the reported pKi for Nc1ncc(Br)cc1C(=O)c1cccc(N2CCNC(c3ccccc3)C2)n1 (centres unmarked) .
[A] > 7.30

[Q] Reported pKi, compound "CN1CCCN(c2cccc(-c3n[nH]c4ncccc34)n2)CC1" : ____
[A] > 6.30

[Q] Bench note: what pKi did COC(C)C1CN(c2ccc(C(F)(F)F)c(-c3n[nH]c4ncccc34)n2)CCN1 (centres unmarked) show?
[A] < 5.90

[Q] Report pKi for CC(N)(CNc1ccc(C(F)(F)F)c(C(=O)c2cccnc2N)n1)Cc1ccccc1 (centres unmarked) please.
[A] 5.55 to 6.30

[Q] Give the measured pKi of COC(=O)C1(CC(C)C)CN(c2ccc(C(F)(F)F)c(-c3n[nH]c4ncccc34)n2)CCC1N (centres unmarked) .
[A] < 5.90
